Where a SMILES comes first, the peptide text is derived from it.
For HSV-1 ribonucleotide reductase (Human herpesvirus 1), measured IC50 is reported for the entries below.
Express the reported value numerically, then name its unit.

- CCCCCCCC(=O)C[C@H](NC(=O)[C@@H](NC(=O)C(CC)CC)[C@@H](C)CC)C(=O)N[C@@H](CC(=O)O)C(=O)N[C@@H](CC(C)C)C(=O)O: 24 µM

Query string: Provide IC50, tested on HSV-1 ribonucleotide reductase (Human herpesvirus 1), for CCCCCCCC(=O)C[C@H](NC(=O)[C@@H](NC(=O)C(CC)CC)C(C)(C)C)C(=O)N[C@H](C(=O)N[C@@H](CC(C)C)C(=O)O)C(C)(C)C(=O)O .
Sequence (P08543 whole entry): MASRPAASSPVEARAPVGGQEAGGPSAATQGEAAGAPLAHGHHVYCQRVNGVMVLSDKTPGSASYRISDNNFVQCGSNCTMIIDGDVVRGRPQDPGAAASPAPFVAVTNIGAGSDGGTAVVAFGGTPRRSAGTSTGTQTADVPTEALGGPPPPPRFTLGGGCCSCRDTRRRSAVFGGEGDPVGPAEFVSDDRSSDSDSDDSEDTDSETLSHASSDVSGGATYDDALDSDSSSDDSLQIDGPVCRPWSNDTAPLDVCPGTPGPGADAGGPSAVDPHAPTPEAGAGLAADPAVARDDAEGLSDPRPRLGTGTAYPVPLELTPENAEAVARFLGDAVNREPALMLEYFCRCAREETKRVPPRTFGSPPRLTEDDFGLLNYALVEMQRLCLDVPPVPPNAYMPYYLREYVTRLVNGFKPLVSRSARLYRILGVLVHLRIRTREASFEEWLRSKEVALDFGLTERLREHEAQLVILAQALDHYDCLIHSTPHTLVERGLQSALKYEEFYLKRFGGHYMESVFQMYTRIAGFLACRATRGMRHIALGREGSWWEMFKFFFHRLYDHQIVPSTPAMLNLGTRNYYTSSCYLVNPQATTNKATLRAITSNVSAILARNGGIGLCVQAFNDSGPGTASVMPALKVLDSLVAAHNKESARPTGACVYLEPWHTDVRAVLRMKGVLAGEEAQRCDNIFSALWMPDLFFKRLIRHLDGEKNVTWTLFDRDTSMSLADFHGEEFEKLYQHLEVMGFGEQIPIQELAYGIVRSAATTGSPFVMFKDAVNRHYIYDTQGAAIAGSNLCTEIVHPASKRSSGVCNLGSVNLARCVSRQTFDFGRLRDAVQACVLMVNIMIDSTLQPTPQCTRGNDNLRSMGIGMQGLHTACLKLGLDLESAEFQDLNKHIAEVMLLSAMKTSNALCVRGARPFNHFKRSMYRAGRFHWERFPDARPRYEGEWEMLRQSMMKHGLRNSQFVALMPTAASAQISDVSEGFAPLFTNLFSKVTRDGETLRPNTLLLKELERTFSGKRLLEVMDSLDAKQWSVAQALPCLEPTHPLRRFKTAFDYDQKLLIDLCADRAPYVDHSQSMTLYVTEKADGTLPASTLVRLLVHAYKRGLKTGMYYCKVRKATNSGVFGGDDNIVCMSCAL
Result string: 1.2 µM

Query string: Retrieve IC50 on HSV-1 ribonucleotide reductase (Human herpesvirus 1); query CCCCCCCC(=O)C[C@H](NC(=O)[C@@H](NC(=O)[C@H](C(C)C)N(C)C(=O)CCc1ccccc1)[C@@H](C)CC)C(=O)N[C@@H](CC(=O)O)C(=O)N[C@@H](CC(C)C)C(=O)O (HELM PEPTIDE1{[O=C(CCc1ccccc1)[*:2]].[meV].I.[CCCCCCCC(=O)C[C@H](N[*:1])C(=O)[*:2]].D.L}$$$$V2.0)
Result string: 0.42 µM

----------
# testSystem: HSV-1 ribonucleotide reductase (Human herpesvirus 1)
Where a SMILES comes first, the peptide text is derived from it.
Could you please mark YES for values of IC50 below 6 µM and NO for values at or above it?

Take a look at these entries with their results.
* CCCCCCCCCCCC(=O)C[C@H](NC(=O)[C@@H](NC(=O)C(CC)CC)[C@@H](C)CC)C(=O)N[C@@H](CC(=O)O)C(=O)N[C@@H](CC(C)C)C(=O)O | NO
* CCC(CC)C(=O)N[C@H](C(=O)N[C@@H](CC(=O)C1CCCC1)C(=O)N[C@@H](CC(=O)O)C(=O)NCCC(C)(C)C)C(C)(C)C | NO
* CCCCCCCC(=O)C[C@H](NC(=O)[C@@H](NC(=O)C(CC)CC)C(C)(C)C)C(=O)N[C@@H](CC(=O)O)C(=O)N[C@@H](CC(C)C)C(=O)O | YES
* CCCCCCCCCCCC(=O)C[C@H](NC(=O)[C@@H](NC(=O)[C@H](C(C)C)N(C)C(=O)CCc1ccccc1)[C@@H](C)CC)C(=O)N[C@@H](CC(=O)O)C(=O)N[C@@H](CC(C)C)C(N)=O (HELM PEPTIDE1{[O=C(CCc1ccccc1)[*:2]].[meV].I.[CCCCCCCCCCCC(=O)C[C@H](N[*:1])C(=O)[*:2]].D.L.[am]}$$$$V2.0) | NO

Query string: Hello, is IC50 of the following molecule strictly smaller than 6 µM? CC[C@H](C)[C@H](NC(=O)[C@H](C(C)C)N(C)C(=O)CCc1ccccc1)C(=O)N[C@@H](CC(C)=O)C(=O)N[C@@H](CC(=O)O)C(=O)N[C@@H](CC(C)C)C(=O)O (HELM PEPTIDE1{[O=C(CCc1ccccc1)[*:2]].[meV].I.[CC(=O)C[C@H](N[*:1])C(=O)[*:2]].D.L}$$$$V2.0)
Result string: YES

----------
Measured IC50 (HSV-1 ribonucleotide reductase (Human herpesvirus 1, UniProt P08543))
Where a SMILES comes first, the peptide text is derived from it.
Numbers only; they are read as µM.

- CC[C@H](C)[C@H](NC(=O)[C@H](C(C)C)N(C)C(=O)CCc1ccccc1)C(=O)N[C@@H](CC(=O)C1CCCC1)C(=O)N[C@@H](CC(=O)O)C(=O)N[C@@H](CC(C)C)C(=O)O (HELM PEPTIDE1{[O=C(CCc1ccccc1)[*:2]].[meV].I.[O=C(C[C@H](N[*:1])C(=O)[*:2])C1CCCC1].D.L}$$$$V2.0): 0.18

Okay, next one:
Query string: Send back HSV-1 ribonucleotide reductase (Human herpesvirus 1, UniProt P08543) IC50 of CCCCCC(=O)C[C@H](NC(=O)[C@@H](NC(=O)C(CC)CC)C(C)(C)C)C(=O)N[C@@H](CC(=O)O)C(=O)N[C@@H](CC(C)C)C(=O)O only.
Result string: 7.5
